This collection of values is drawn from patent US20190307776A1.

Assignment: determine reported log10 EC50 for the given compounds.
- Test system: recombinant NL4-3 virus
- method notes: HIV cell culture assay
- Assay type: cell-based
- study conditions: Human immunodeficiency virus 1, NL43, MT2
Could you please treat all values as log10 of EC50 in nM?

compound	study target	val
C=C(C)[C@@H]1CC[C@]2(CNCCCN3CCS(=O)(=O)CC3)CC[C@]3(C)[C@H](CC[C@@H]4[C@@]5(C)CCN(C(=O)CCc6ccc(C(=O)O)cc6)C(C)(C)[C@@H]5CC[C@]43C)[C@@H]12 [Example 28]	recombinant NL4-3 virus	2.97
C=C(C)[C@@H]1CC[C@]2(CNCCCN3CCS(=O)(=O)CC3)CC[C@]3(C)[C@H](CC[C@@H]4[C@@]5(C)CCN(C(=O)CC(C)(C)CC(=O)O)C(C)(C)[C@@H]5CC[C@]43C)[C@@H]12 [Example 24]	recombinant NL4-3 virus	2.08
C=C(C)[C@@H]1CC[C@]2(CNCCCN3CCS(=O)(=O)CC3)CC[C@]3(C)[C@H](CC[C@@H]4[C@@]5(C)CCN(C(=O)/C=C/c6ccc(C(=O)O)cc6)C(C)(C)[C@@H]5CC[C@]43C)[C@@H]12 [Example 29]	recombinant NL4-3 virus	3.20
C=C(C)[C@@H]1CC[C@]2(CO)CC[C@]3(C)[C@H](CC[C@@H]4[C@@]5(C)CCN(C(=O)CCCC(=O)O)C(C)(C)C5CC[C@]43C)[C@@H]12 (stereo partly drawn) [Example 8]	recombinant NL4-3 virus	3.26
C=C(C)[C@@H]1CC[C@]2(CNCCCN3CCS(=O)(=O)CC3)CC[C@]3(C)[C@H](CC[C@@H]4[C@@]5(C)CCN(c6ncc(C(=O)O)cn6)C(C)(C)[C@@H]5CC[C@]43C)[C@@H]12 [Example 49]	recombinant NL4-3 virus	-0.15

The following compounds each have a reported value; give each one's log10 EC50.
1. C=C(C)[C@@H]1CC[C@]2(CO)CC[C@]3(C)[C@H](CC[C@@H]4[C@@]5(C)CCN(C(=O)CCC(=O)O)C(C)(C)C5CC[C@]43C)[C@@H]12 (stereo partly drawn) [Example 9]
2. C=C(C)[C@@H]1CC[C@]2(CO)CC[C@]3(C)[C@H](CC[C@@H]4[C@@]5(C)CCN(C(=O)c6cccc(C(=O)O)c6)C(C)(C)C5CC[C@]43C)[C@@H]12 (stereo partly drawn) [Example 5]
3. C=C(C)[C@@H]1CC[C@]2(C(=O)O)CC[C@]3(C)[C@H](CC[C@@H]4[C@@]5(C)CCN(c6ncc(C(=O)O)cn6)C(C)(C)[C@@H]5CC[C@]43C)[C@@H]12 [Example 52]
4. C=C(C)[C@@H]1CC[C@]2(CNCCCN3CCS(=O)(=O)CC3)CC[C@]3(C)[C@H](CC[C@@H]4[C@@]5(C)CCN(c6ccc(C#N)nc6)C(C)(C)[C@@H]5CC[C@]43C)[C@@H]12 [Example 43]

Out:
1. 3.44
2. 3.10
3. 1.79
4. 2.45

Would you mind giving log10 EC50 for every compound in the list below?
1. C=C(C)[C@@H]1CC[C@]2(CO)CC[C@]3(C)[C@H](CC[C@@H]4[C@@]5(C)CCN(S(=O)(=O)c6ccc(C(=O)O)cc6)C(C)(C)C5CC[C@]43C)[C@@H]12 (stereo partly drawn) [Example 20]
2. C=C(C)[C@@H]1CC[C@]2(CN(C)CCCN3CCS(=O)(=O)CC3)CC[C@]3(C)[C@H](CC[C@@H]4[C@@]5(C)CCN(c6ccc(C(=O)O)nc6)C(C)(C)[C@@H]5CC[C@]43C)[C@@H]12 [Example 51]
3. C=C(C)[C@@H]1CC[C@]2(CNCCCN3CCS(=O)(=O)CC3)CC[C@]3(C)[C@H](CC[C@@H]4[C@@]5(C)CCN(c6ccc(C(=O)O)nc6)C(C)(C)[C@@H]5CC[C@]43C)[C@@H]12 [Example 44]

Out:
1. 3.49
2. 1.41
3. 0.85

In: State measured log10 EC50 of the compound C=C(C)[C@@H]1CC[C@]2(CNCCCN3CCS(=O)(=O)CC3)CC[C@]3(C)[C@H](CC[C@@H]4[C@@]5(C)CCN(c6c(O)c(=O)c6=O)C(C)(C)[C@@H]5CC[C@]43C)[C@@H]12 [Example 55] with recombinant NL4-3 virus.
Out: 2.40
